B1: TFE3 (parent)
chain: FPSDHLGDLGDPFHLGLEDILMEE

variants of: B1; experiment: protein stability index of a GFP-peptide fusion (GPS, HEK-293T) (PSI 1-6); higher = more stable; settings: c terminus: a fixed tail appended;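 note: lentivirally expressed fusions sorted by FACS into six bins by GFP to DsRed ratio, PSI derived from sequencing read proportions per bin multiplied by bin number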
Record Fulfilled whenever protein stability index is at 3 or higher; record Not fulfilled when lower.

Look over these answered cases.
# changes, group
measured = [
    ("E18D", "Fulfilled"),
    ("G7F", "Not fulfilled"),
    ("D11N", "Not fulfilled"),
    ("L15T", "Fulfilled"),
]

Exercise: Could you please find out whether H14E has protein stability index that meets 3 or exceeds it?
Key: Fulfilled

Exercise: Could you please find out whether G16V has protein stability index that meets 3 or exceeds it?
Key: Not fulfilled

Exercise: Could you please find out whether D11I has protein stability index that meets 3 or exceeds it?
Key: Fulfilled

Exercise: Could you please find out whether L9R has protein stability index that meets 3 or exceeds it?
Key: Fulfilled

Exercise: Could you please find out whether L21Y has protein stability index that meets 3 or exceeds it?
Key: Fulfilled

Exercise: Could you please find out whether D4L has protein stability index that meets 3 or exceeds it?
Key: Not fulfilled

Exercise: Could you please find out whether S3T has protein stability index that meets 3 or exceeds it?
Key: Not fulfilled

From: the supplement of paper PMC10567573
